For each record, write down the corresponding self-cleavage.
B1: OR4K15 (parent)
chain: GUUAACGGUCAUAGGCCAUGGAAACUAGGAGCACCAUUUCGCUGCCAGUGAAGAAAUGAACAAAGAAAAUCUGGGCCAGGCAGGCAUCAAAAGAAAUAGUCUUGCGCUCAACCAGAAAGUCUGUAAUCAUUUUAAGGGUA

- Variants of: B1
- METHOD SUMMARY: self-cleavage, relative activity (ratio to wild type); higher = more cleavage; in vitro, sequencing; the parent is a self-cleaving ribozyme
Enter the number alone.

Q) Read the entry A33G G106A and write its reported self-cleavage.
A) 0.04

Q) Read the entry G73A A118G and write its reported self-cleavage.
A) 0.14

Q) Read the entry G74U A111G and write its reported self-cleavage.
A) 0.04

Q) Read the entry U19A A140G and write its reported self-cleavage.
A) 1.75

Q) Read the entry A23U U103C and write its reported self-cleavage.
A) 0.03

Q) Read the entry A60G U87A and write its reported self-cleavage.
A) 1.02

Q) Read the entry A27U A64U and write its reported self-cleavage.
A) 2.21

Q) Read the entry U26A A114G and write its reported self-cleavage.
A) 0.2

Q) Read the entry U38C A110G and write its reported self-cleavage.
A) 0.17

Q) Read the entry A22U A27U and write its reported self-cleavage.
A) 2.02

Q) Read the entry A36C A111G and write its reported self-cleavage.
A) 0.02

Q) Read the entry G14A A67G and write its reported self-cleavage.
A) 1.66

Q) Read the entry A59G A140G and write its reported self-cleavage.
A) 1.25

Q) Read the entry U19A A86G and write its reported self-cleavage.
A) 2.13

Q) Read the entry A91G A117U and write its reported self-cleavage.
A) 0.69

Q) Read the entry A56G G115A and write its reported self-cleavage.
A) 0.11

Q) Read the entry C34U A36U and write its reported self-cleavage.
A) 1.19

Q) Read the entry C71U A92G and write its reported self-cleavage.
A) 0.52

Q) Read the entry A59U C61U and write its reported self-cleavage.
A) 1.53

Q) Read the entry A63U U131A and write its reported self-cleavage.
A) 2.65

Q) Read the entry A98U A114G and write its reported self-cleavage.
A) 0.5

Q) Read the entry A68G U120G and write its reported self-cleavage.
A) 1.02

Q) Read the entry U12A A36C and write its reported self-cleavage.
A) 1.82

Q) Read the entry U57C U124G and write its reported self-cleavage.
A) 0.94

Q) Read the entry U26C A54G and write its reported self-cleavage.
A) 1.61

Q) Read the entry A59C A140U and write its reported self-cleavage.
A) 1.46

Q) Read the entry A11U A114G and write its reported self-cleavage.
A) 0.61

Q) Read the entry A33C A67U and write its reported self-cleavage.
A) 1.28

Q) Read the entry U97C A134G and write its reported self-cleavage.
A) 1.02

Q) Read the entry A116U U127C and write its reported self-cleavage.
A) 0.23

Q) Read the entry A33U C76G and write its reported self-cleavage.
A) 0.17

Q) Read the entry A24C A63G and write its reported self-cleavage.
A) 1.94

Q) Read the entry A68G A114U and write its reported self-cleavage.
A) 0.04

Q) Read the entry G65C A111G and write its reported self-cleavage.
A) 0.01

Q) Read the entry A36G A67G and write its reported self-cleavage.
A) 1.7

Q) Read the entry U12C A55G and write its reported self-cleavage.
A) 1.34

Q) Read the entry G15A A116G and write its reported self-cleavage.
A) 0.52

Q) Read the entry U108A U132A and write its reported self-cleavage.
A) 0.01

Q) Read the entry A51U G58U and write its reported self-cleavage.
A) 1.45

Q) Read the entry A69G A126G and write its reported self-cleavage.
A) 0.55

Q) Read the entry A62C U87A and write its reported self-cleavage.
A) 1.54

Q) Read the entry A82U G123A and write its reported self-cleavage.
A) 0.19

Q) Read the entry A90U U103A and write its reported self-cleavage.
A) 0.34

Q) Read the entry A11U A56G and write its reported self-cleavage.
A) 1.1

Q) Read the entry A13U A86G and write its reported self-cleavage.
A) 1.62

Q) Read the entry A33C U122C and write its reported self-cleavage.
A) 1.09

Q) Read the entry U37C A125G and write its reported self-cleavage.
A) 0.68

Q) Read the entry A94U U108C and write its reported self-cleavage.
A) 0.02

Q) Read the entry A51G G73A and write its reported self-cleavage.
A) 0.26

Q) Read the entry U70C G83A and write its reported self-cleavage.
A) 1.57

Q) Read the entry G50A A117G and write its reported self-cleavage.
A) 1.92

Q) Read the entry A52G A125U and write its reported self-cleavage.
A) 0.86

Q) Read the entry U9C A24G and write its reported self-cleavage.
A) 1.33

Q) Read the entry C42U U127C and write its reported self-cleavage.
A) 0.99

meta.source: the RNAGym collection of RNA variant scans (doi:10.7554/elife.90254)
